Measured pEC50 accompanies every entry in the list below.
target: soluble guanylate cyclase (human GUCYA3/GUCYB3) overexpressed in CHO cells (Homo sapiens, UniProt Q02108+Q02153); experiment: CHO cellular assay (cGMP production, HTRF); conditions: CHO K1 clone 8E10 overexpressing human sGC, Cisbio HTRF, 1 h room temperature, 1 mM IBMX, 20 uM ODQ, minimum quantification limit 0.5 nM
Hey, just a heads up that pEC50 is the negative log base 10 of the concentration in molar.

MOLECULE | pEC50
O=C(O)c1cnn(-c2cccc(-c3sccc3COc3ccc4c(c3)CCN(Cc3ccccn3)C4)n2)c1C(F)(F)F [Example 23] | 7.42
Cc1cc(C2CCN(C(=O)C3CC3)CC2)ccc1OCc1ccsc1-c1cccc(-n2ncc(C(=O)O)c2C(F)(F)F)c1 [Example 6-1] | 9.00
CCC(=O)N1CCC(c2ccc(COc3ccsc3-c3cccc(-n4ncc(C(=O)O)c4C(F)(F)F)n3)cc2)CC1 [Example 31] | 7.89
CCc1cc(OCc2cc(C)sc2-c2cccc(-n3ncc(C(=O)O)c3C(F)(F)F)n2)ccc1C1CCN(C(=O)C(C)(C)CO)CC1 [Example 12-10] | 7.48
CCCc1cc(OCc2cc(C)sc2-c2cccc(-n3ncc(C(=O)O)c3C(F)(F)F)n2)ccc1C1CCN(C(=O)C2CC2)CC1 [Example 35-15] | 8.85
Cc1cc(C2CCN(C(=O)C3CC(O)C3)CC2)ccc1OCc1ccsc1-c1cccc(-n2ncc(C(=O)O)c2C(F)(F)F)n1 (stereo not drawn) [Example 12-5] | 7.34

Task: pEC50 for Cc1cc(C2CCN(C(=O)C3CC3)CC2)ccc1NC(C)c1ccsc1-c1cccc(-n2ncc(C(=O)O)c2C(F)(F)F)c1 (stereo not drawn) [Example 36] ?
Result: 7.82

Task: Consider next the molecule Cc1cc(C2CCN(CC(F)(F)F)CC2)ccc1NCc1c(C)csc1-c1cccc(-n2ncc(C(=O)O)c2C(F)(F)F)n1 [Example 20-3] in the same way.
Result: 7.41

Task: Let us now turn to Cc1cc(C2CCN(C(=O)C3CC3)CC2)ccc1NCc1ccsc1-c1cccc(-n2ncc(C(=O)O)c2C(F)(F)F)n1 [Example 16-1]
Result: 8.06

---

Target: soluble guanylate cyclase (human GUCYA3/GUCYB3) overexpressed in CHO cells (Homo sapiens, UniProt Q02108+Q02153)
Sequence (Q02108 1-690 partner): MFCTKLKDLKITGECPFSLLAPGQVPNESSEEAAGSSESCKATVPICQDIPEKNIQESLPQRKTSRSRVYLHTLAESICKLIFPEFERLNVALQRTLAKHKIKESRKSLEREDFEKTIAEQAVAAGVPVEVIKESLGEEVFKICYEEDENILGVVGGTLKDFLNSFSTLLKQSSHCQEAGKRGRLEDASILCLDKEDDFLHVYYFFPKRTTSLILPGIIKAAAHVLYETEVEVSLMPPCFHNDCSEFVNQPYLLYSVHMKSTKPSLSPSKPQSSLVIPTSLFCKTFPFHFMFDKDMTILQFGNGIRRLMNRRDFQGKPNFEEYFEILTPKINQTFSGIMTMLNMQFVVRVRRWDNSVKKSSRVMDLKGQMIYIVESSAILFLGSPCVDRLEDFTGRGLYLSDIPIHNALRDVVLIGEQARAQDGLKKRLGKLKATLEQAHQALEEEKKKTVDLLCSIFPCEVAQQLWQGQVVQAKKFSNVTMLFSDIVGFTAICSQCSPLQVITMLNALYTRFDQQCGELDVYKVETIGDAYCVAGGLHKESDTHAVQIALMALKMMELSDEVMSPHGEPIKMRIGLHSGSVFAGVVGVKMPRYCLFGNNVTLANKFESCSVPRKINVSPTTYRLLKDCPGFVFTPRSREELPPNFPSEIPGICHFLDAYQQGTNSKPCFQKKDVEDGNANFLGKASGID
Sequence (Q02153 1-619): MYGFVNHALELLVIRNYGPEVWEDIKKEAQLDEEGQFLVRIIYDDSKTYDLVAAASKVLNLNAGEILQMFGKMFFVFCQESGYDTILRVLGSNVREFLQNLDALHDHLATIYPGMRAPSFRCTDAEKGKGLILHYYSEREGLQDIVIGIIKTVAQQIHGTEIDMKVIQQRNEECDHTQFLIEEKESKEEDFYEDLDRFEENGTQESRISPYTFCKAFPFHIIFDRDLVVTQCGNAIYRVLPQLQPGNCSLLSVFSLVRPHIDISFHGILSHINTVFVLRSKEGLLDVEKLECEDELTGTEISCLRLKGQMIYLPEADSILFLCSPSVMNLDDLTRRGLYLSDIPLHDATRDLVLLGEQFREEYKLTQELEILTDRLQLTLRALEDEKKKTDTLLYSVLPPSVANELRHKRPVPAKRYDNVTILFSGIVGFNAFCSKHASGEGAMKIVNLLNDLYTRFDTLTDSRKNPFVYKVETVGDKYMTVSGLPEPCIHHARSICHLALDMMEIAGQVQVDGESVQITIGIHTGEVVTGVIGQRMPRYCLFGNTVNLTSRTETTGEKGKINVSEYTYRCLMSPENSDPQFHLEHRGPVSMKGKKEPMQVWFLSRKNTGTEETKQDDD
Experiment: CHO cellular assay (cGMP production, HTRF)
Conditions: CHO K1 clone 8E10 overexpressing human sGC, Cisbio HTRF, 1 h room temperature, 1 mM IBMX, 20 uM ODQ, minimum quantification limit 0.5 nM
pEC50: −log10 of the molar value.
Returns criterion met if the recorded pEC50 is greater than or equal to 8, and criterion not met otherwise.

MOLECULE | CATEGORY
CCc1cc(COc2ccc(C3CCN(C(=O)OC)CC3)cc2C)c(-c2cccc(-n3ncc(C(=O)O)c3C(F)(F)F)n2)s1 [Example 4-3] | criterion met
CCc1csc(-c2cccc(-n3ncc(C(=O)O)c3C(F)(F)F)n2)c1COc1ccc(C2CCN(CC(F)(F)F)CC2)cc1C [Example 18-6] | criterion not met
CCC(=O)N1CCC(c2ccc(OCc3ccsc3-c3cccc(-n4ncc(C(=O)O)c4C(F)(F)F)n3)c(C)c2)CC1 [Example 2-5] | criterion met
Cc1c(OCc2ccsc2-c2cccc(-n3ncc(C(=O)O)c3C(F)(F)F)n2)ccc(C2CCN(C(=O)C3CC3)CC2)c1C [Example 6-2] | criterion not met

Task: Check if pEC50 >= 8 (inclusive). Item: Cc1cc(C2CCN(CC(F)(F)F)CC2)ccc1OCc1c(-c2cccc(-n3ncc(C(=O)O)c3C(F)(F)F)n2)sc(C)c1C [Example 18-5]
Result: criterion met
